# targetOrSystem: S1P1 receptors (Homo sapiens)
# Sequence (P21453 whole entry): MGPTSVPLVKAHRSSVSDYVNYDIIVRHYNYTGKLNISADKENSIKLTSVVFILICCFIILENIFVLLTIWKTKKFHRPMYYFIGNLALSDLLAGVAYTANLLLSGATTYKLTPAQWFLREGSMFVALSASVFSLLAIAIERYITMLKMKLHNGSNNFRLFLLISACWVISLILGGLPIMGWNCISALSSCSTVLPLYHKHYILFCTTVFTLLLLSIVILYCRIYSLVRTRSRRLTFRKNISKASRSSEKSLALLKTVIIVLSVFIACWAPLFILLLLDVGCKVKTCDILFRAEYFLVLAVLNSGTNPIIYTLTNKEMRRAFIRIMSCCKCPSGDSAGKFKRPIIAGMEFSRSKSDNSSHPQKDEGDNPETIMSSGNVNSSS
# procedureDetails: 35S-GTPyS binding assay
# conditions: membranes; compound 0.1 nM-10 μM; 0.1 nM 35S-GTPyS; 10 μM S1P as 100% maximum efficacy; 90 min at room temperature
measuredAttribute: EC50 (nM)

Worked set:
- compound: "COc1c(C)cc(-c2nnc(N(CC3CC3)C(=O)c3ccccc3F)s2)cc1C [Example 46]"
  measuredAttribute: "EC50"
  valueReported: 36
- compound: "CCCCN(C(=O)c1ccccc1F)c1nnc(-c2ccc(OC)nc2)s1 [Example 48]"
  measuredAttribute: "EC50"
  valueReported: 116
- compound: "CCCCN(C(=O)c1ccccc1Cl)c1nnc(-c2cc(C)nc(Cl)c2)s1 [Example 39]"
  measuredAttribute: "EC50"
  valueReported: 3.8
- compound: "CCCCN(C(=O)c1ccccc1Cl)c1nnc(-c2cc(C)c(O)c(C)c2)s1 [Example 8]"
  measuredAttribute: "EC50"
  valueReported: 6.2
- compound: "CCCCN(C(=O)c1ccccc1Cl)c1nnc(-c2ccc(C(N)=O)cc2)s1 [Example 53]"
  measuredAttribute: "EC50"
  valueReported: 46.3

I. CCCCN(C(=O)c1cccc(Cl)c1F)c1nnc(-c2cc(C)c(OCC(O)CO)c(C)c2)s1 (stereo not drawn) [Example 111]
II. CCCCN(C(=O)c1ccccc1Cl)c1nnc(-c2cc(Cl)nc(OC)c2)s1 [Example 31]
Query block: Which has the higher EC50, I or II ? Provide the label of your selected option as the answer.
Result block: II
(II: 3.4 nM, I: 0.15 nM)

1. CCCCN(C(=O)c1ccccc1F)c1nnc(-c2cc(C)c(OC)c(C)c2)s1 [Example 9]
2. CCCCN(C(=O)c1ccccc1OC)c1nnc(-c2cc(C)c(OC)c(C)c2)s1 [Example 19]
3. CCCCN(C(=O)c1ccccc1Cl)c1nnc(-c2cc(C)c(OCCOC)c(C)c2)s1 [Example 32]
4. CCCCN(C(=O)Cc1ccccc1F)c1nnc(-c2ccc(CN3CC(C(=O)O)C3)cc2)s1 [Example 87]
5. CCCCN(C(=O)c1ccccc1F)c1nnc(-c2ccc(CN3CCC(C(=O)O)C3)cc2C)s1 (stereo not drawn) [Example 97]
Query block: Rank ascending by EC50. Hello, could you send the labels back in the order asked? Thank you.
Result block: 4, 5, 1, 2, 3
(4: 1.4 nM, 5: 2 nM, 1: 4.4 nM, 2: 8.3 nM, 3: 64.2 nM)

A. CCCCN(C(=O)c1ccccc1F)c1nnc(-c2cc(C)c(OCC(O)CN)c(C)c2)s1 (stereo not drawn) [Example 113]
B. CCCCN(C(=O)c1ccccc1F)c1nnc(-c2cc(C)c(OCCN)c(C)c2)s1 [Example 105]
C. CCCCN(C(=O)c1ccccc1Cl)c1nnc(-c2ccc(CN3CCC(C(=O)O)CC3)cc2C)s1 [Example 118]
D. CCN(C(=O)c1cccc(Cl)c1F)c1nnc(-c2ccc(CN3CC(C(=O)O)C3)cc2)s1 [Example 108]
Query block: Arrange by EC50, high to low. Lab note: final answer is the ordered label list.
Result block: D, C, A, B
(D: 7 nM, C: 4.42 nM, A: 1.52 nM, B: 0.45 nM)

P. CCCCN(C(=O)c1ccccc1F)c1nnc(-c2ccc3nccn3c2)s1 [Example 49]
Q. CCCCN(C(=O)c1ccccc1F)c1nnc(-c2ccc(C(=O)NCCC(=O)O)cc2)s1 [Example 69]
Query block: Consider P and Q . Which of these has its EC50 at a higher number? State the label of the item chosen.
Result block: P
